Reported inhibition at 10 µM is given for each of the following molecules.
tested_target: human DHFR enzyme (Homo sapiens, UniProt P00374)
Construct: purchased MyBioSource MBS9312476
Sequence (P00374 1-187): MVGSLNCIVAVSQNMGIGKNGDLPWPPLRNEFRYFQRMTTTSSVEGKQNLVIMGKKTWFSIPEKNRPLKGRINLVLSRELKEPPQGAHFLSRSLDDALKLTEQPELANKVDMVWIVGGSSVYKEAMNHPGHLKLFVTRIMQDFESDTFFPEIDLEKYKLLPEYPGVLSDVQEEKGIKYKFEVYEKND
run_description: Elisa assay of human DHFR enzyme
Type: biochemical
details: conc 10 uM
Please give a number only; it is taken to be in %.

Some solved cases for reference:
{"molecule": "O=C(NC(Cc1c[nH]cn1)C(=O)O)c1ccc(Nc2ncnc3c2cnn3-c2ccccc2)cc1 (stereo not drawn) [Compound 7i]", "observed": 80}
{"molecule": "O=C(O)C1CCCN1C(=O)c1ccc(Nc2ncnc3c2cnn3-c2ccccc2)cc1 (stereo not drawn) [Compound 7j]", "observed": 80}
{"molecule": "CC(C)C(NC(=O)c1ccc(Nc2ncnc3c2cnn3-c2ccccc2)cc1)C(=O)O (stereo not drawn) [Compound 7c]", "observed": 80}
{"molecule": "O=C(NC(Cc1c[nH]c2ccccc12)C(=O)O)c1ccc(Nc2ncnc3c2cnn3-c2ccccc2)cc1 (stereo not drawn) [Compound 7k]", "observed": 60}
{"molecule": "O=C(c1ccc(Nc2ncnc3c2cnn3-c2ccccc2)cc1)n1nnc2ccccc21 [Compound 6]", "observed": 61}

Shift focus to the following entry.
Lookup: Which value of inhibition at 10 µM has been reported for O=C(NC(Cc1ccccc1)C(=O)O)c1ccc(Nc2ncnc3c2cnn3-c2ccccc2)cc1 (stereo not drawn) [Compound 7l] in the records?
Found: 81

Values from paper PMC9673804
